# Test System: MSI1 full-length (mouse, UniProt Q61474 1-362)
# Sequence (Q61474 whole entry): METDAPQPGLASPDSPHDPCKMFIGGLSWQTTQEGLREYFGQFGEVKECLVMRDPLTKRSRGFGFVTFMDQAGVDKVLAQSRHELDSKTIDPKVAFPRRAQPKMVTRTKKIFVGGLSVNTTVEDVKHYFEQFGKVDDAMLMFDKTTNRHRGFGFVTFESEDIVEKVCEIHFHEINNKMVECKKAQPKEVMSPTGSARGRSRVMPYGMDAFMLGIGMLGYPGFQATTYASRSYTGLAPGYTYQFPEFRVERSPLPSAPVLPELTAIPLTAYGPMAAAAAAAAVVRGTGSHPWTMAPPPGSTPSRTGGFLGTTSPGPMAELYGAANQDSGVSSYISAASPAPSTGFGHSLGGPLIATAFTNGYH
# Experiment Description: nsRBNS (natural sequence RNA bind-n-seq); RBNS binding buffer (assumed for nsRBNS): 25 mM Tris pH 7.5, 150 mM KCl, 3 mM MgCl2, 0.01% Triton X-100, 500 ug/ml BSA, 20 U/ml SUPERase-In, 4 C; UNK is unkempt and MSI1 is Musashi-1; names of the RNAs are library labels; protein concentration not given here; high values mean tight binding
In all, about 5,800 sequences were measured (“enrichment r”: median about 0.54, highest 2% from about 16 on). What follows is part of a selection rich in the highest values, with near analogues and random picks from the rest.
Parameter Measured: binding signal (enrichment R)
Record the value in enrichment R, omitting the unit from your answer.

- ENSG00000087460:stop:overlap|stop_codon|ENSG00000087460|stop_codon|NA|stop_codon (ssRNA) RNA: GGGAGUUCUACAGUCCGACGAUCGAGGCGCCUUCGGCUCGGGCCAUGGCGCCCGGCGCCGGGGGCGCGAGGAGCGGCUCAUCUAGUCAGACCCCCCACCCCGCCACCGCCACCAGACACCACCAUCGCUGUGUAGUGUGCUGGCAACAGAGGAUUGAGCAUCA: 0.204

Task: State the recorded binding signal for this entry: chr3:45095346:45095568:-|CDS|ENSG00000163814|control|control|control (ssRNA) RNA: GGGAGUUCUACAGUCCGACGAUCAAACAGAGCCGCAAGUUUGUCCCUGGCUGUUUCGUGUGUCUAGAAUCUCGGACCUGCAGUAGCAACCUCACCCUGACAUCUGGCUCCAAACACAAAAUCUCCUUCCUUUGUGAUGAUCUGCAACAGAGGAUUGAGCAUCA
Output: 0.476
